- Assay Notes: Displacement of [125I]CGRP from CGRP receptor in dog brain membrane after 3 hrs
- Format: cell membranes, Canis lupus familiaris
Outcome Measure: Ki (nM)
Write the value in nM as a bare number.

Query: Ki; subject: C[C@@]1(c2cc(F)cc(F)c2)CNC2(CCCC2)C(=O)N1CC(=O)Nc1cnc2c(c1)C[C@@]1(C2)C(=O)Nc2ncccc21
39

====

- Measured Target: Calcitonin-gene-related peptide receptor, CALCRL/RAMP1 (Homo sapiens, UniProt O60894+Q16602)
- Sequence (O60894 whole entry): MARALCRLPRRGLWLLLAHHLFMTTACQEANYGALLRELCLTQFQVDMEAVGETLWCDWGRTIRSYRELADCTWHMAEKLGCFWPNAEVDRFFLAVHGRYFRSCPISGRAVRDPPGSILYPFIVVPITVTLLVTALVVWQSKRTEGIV
- Sequence (Q16602 whole entry): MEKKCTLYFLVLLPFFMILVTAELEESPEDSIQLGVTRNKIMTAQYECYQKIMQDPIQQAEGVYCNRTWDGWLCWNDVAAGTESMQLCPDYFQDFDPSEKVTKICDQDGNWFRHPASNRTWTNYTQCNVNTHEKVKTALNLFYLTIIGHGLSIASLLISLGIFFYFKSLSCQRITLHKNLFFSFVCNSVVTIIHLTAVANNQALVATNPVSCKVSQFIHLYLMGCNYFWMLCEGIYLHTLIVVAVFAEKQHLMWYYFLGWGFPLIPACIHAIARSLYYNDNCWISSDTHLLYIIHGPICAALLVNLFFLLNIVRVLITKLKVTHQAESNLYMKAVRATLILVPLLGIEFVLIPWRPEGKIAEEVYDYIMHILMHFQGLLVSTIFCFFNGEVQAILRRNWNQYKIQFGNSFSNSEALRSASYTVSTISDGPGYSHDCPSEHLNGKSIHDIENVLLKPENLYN
- Assay Notes: Displacement of [125I]CGRP from human recombinant CALCRL/RAMP1 receptor expressed in HEK293 cells after 3 hrs
In this section, each of the compounds is paired with its reported pKi.
Keep it numeric: pKi is minus log10 of the concentration in mol/L.

Query: pKi; subject: CC[C@@]1(c2cc(F)cc(F)c2)CNC2(CCCC2)C(=O)N1CC(=O)Nc1cnc2c(c1)C[C@@]1(C2)C(=O)Nc2ncccc21
9.60

Query: pKi; subject: C[C@@]1(c2cc(F)cc(F)c2)CNC2(CCCC2)C(=O)N1CC(=O)Nc1cnc2c(c1)C[C@@]1(C2)C(=O)Nc2ncccc21
10.33

Query: pKi; subject: C[C@@]1(c2cc(F)c(Cl)c(F)c2)CNC2(CCCC2)C(=O)N1CC(=O)Nc1cnc2c(c1)C[C@@]1(C2)C(=O)Nc2ncccc21
10.80

Query: pKi; subject: C[C@@]1(c2cc(F)cc(F)c2)CNC2(CCCC2)C(=O)N1CC(=O)Nc1ccc2c(c1)C[C@@]1(C2)C(=O)Nc2ncccc21
10.40

Query: pKi; subject: O=C(CN1C(=O)C2(CCCC2)NC[C@H]1c1cc(F)cc(F)c1)Nc1ccc2c(c1)C[C@@]1(C2)C(=O)Nc2ncccc21
10.66

Query: pKi; subject: O=C(CN1C(=O)C2(CCCC2)NC[C@H]1c1cc(F)cc(F)c1)Nc1cnc2c(c1)C[C@@]1(C2)C(=O)Nc2ncccc21
10.55

Query: pKi; subject: O=C(CN1C(=O)C2(CCCC2)NC[C@H]1c1cc(F)c(Cl)c(F)c1)Nc1cnc2c(c1)C[C@@]1(C2)C(=O)Nc2ncccc21
10.85

====

- Assay Notes: Half life in monkey at 0.5 mg/kg, iv
- Type: ADME, organism-based, Macaca mulatta
- Set-up: dose 0.5 mg/kg, route intravenous
- Condition Info: rhesus monkey, in vivo
Outcome Measure: half-life (min)
Write the value in min as a bare number.

Query: half-life; subject: C[C@@]1(c2cc(F)cc(F)c2)CNC2(CCCC2)C(=O)N1CC(=O)Nc1cnc2c(c1)C[C@@]1(C2)C(=O)Nc2ncccc21
138

====

- Measured Target: Calcitonin gene-related peptide type 1 receptor (Rattus norvegicus, UniProt Q63118)
- Sequence (Q63118 whole entry): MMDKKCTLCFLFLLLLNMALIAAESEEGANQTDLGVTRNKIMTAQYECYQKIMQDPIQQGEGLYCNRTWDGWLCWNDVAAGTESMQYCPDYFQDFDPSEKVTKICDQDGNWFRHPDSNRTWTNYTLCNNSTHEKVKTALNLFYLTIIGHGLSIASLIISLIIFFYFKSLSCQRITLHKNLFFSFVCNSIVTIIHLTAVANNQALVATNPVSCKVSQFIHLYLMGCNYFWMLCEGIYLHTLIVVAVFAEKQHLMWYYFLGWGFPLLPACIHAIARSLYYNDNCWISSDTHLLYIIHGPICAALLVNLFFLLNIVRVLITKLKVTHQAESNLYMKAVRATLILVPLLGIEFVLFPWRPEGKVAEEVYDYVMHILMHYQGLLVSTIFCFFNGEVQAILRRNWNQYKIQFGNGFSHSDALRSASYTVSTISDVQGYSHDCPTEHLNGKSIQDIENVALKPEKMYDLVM
- Assay Notes: Displacement of [125I]CGRP from CGRP receptor in rat brain membrane after 3 hrs
- Format: cell membranes
Outcome Measure: pKi
Keep it numeric: pKi is minus log10 of the concentration in mol/L.

These solved cases illustrate the format of a correct answer.
- Molecule: "C[C@@]1(c2cc(F)c(Cl)c(F)c2)CNC2(CCCC2)C(=O)N1CC(=O)Nc1cnc2c(c1)C[C@@]1(C2)C(=O)Nc2ncccc21"
  Measured Target: "Calcitonin gene-related peptide type 1 receptor (Rattus norvegicus, UniProt Q63118)"
  Outcome Measure: "pKi"
  Reported Value: 7.89
- Molecule: "O=C(CN1C(=O)C2(CCCC2)NC[C@H]1c1cc(F)c(Cl)c(F)c1)Nc1cnc2c(c1)C[C@@]1(C2)C(=O)Nc2ncccc21"
  Measured Target: "Calcitonin gene-related peptide type 1 receptor (Rattus norvegicus, UniProt Q63118)"
  Outcome Measure: "pKi"
  Reported Value: 7.74
- Molecule: "CC[C@@]1(c2cc(F)cc(F)c2)CNC2(CCCC2)C(=O)N1CC(=O)Nc1cnc2c(c1)C[C@@]1(C2)C(=O)Nc2ncccc21"
  Measured Target: "Calcitonin gene-related peptide type 1 receptor (Rattus norvegicus, UniProt Q63118)"
  Outcome Measure: "pKi"
  Reported Value: 7.22

Please examine the following record next.
Entry C[C@@]1(c2cc(F)cc(F)c2)CNC2(CCCC2)C(=O)N1CC(=O)Nc1cnc2c(c1)C[C@@]1(C2)C(=O)Nc2ncccc21 , system Calcitonin gene-related peptide type 1 receptor (Rattus norvegicus, UniProt Q63118): what pKi was measured?
7.77

====

- Assay Notes: Fraction unbound in monkey plasma
- Type: ADME, cell-free, Macaca mulatta
- Condition Info: rhesus monkey
In this section, each of the compounds is paired with its reported fraction unbound.

These solved cases illustrate the format of a correct answer.
- Molecule: "C[C@@]1(c2cc(F)cc(F)c2)CNC2(CCCC2)C(=O)N1CC(=O)Nc1ccc2c(c1)C[C@@]1(C2)C(=O)Nc2ncccc21"
  fraction unbound: 0.104
- Molecule: "C[C@@]1(c2cc(F)cc(F)c2)CNC2(CCCC2)C(=O)N1CC(=O)Nc1cnc2c(c1)C[C@@]1(C2)C(=O)Nc2ncccc21"
  fraction unbound: 0.37

Please examine the following record next.
Query: fraction unbound; subject: O=C(CN1C(=O)C2(CCCC2)NC[C@H]1c1cc(F)cc(F)c1)Nc1ccc2c(c1)C[C@@]1(C2)C(=O)Nc2ncccc21
0.096

====

In this section, each of the compounds is paired with its reported fraction unbound.
- Assay Notes: Fraction unbound in human plasma
- Format: ADME, cell-free
Keep the answer to the number alone.

These solved cases illustrate the format of a correct answer.
- Compound: "O=C(CN1C(=O)C2(CCCC2)NC[C@H]1c1cc(F)cc(F)c1)Nc1ccc2c(c1)C[C@@]1(C2)C(=O)Nc2ncccc21 [MK3207]"
  Reported Value: 0.094
- Compound: "C[C@@]1(c2cc(F)cc(F)c2)CNC2(CCCC2)C(=O)N1CC(=O)Nc1ccc2c(c1)C[C@@]1(C2)C(=O)Nc2ncccc21"
  Reported Value: 0.106

Please examine the following record next.
Query: fraction unbound; subject: C[C@@]1(c2cc(F)cc(F)c2)CNC2(CCCC2)C(=O)N1CC(=O)Nc1cnc2c(c1)C[C@@]1(C2)C(=O)Nc2ncccc21
0.35

====

- Measured Target: Calcitonin gene-related peptide type 1 receptor (Rattus norvegicus, UniProt Q63118)
- Assay Notes: Displacement of [125I]CGRP from CGRP receptor in rat spleen homogenate after 180 mins by gamma counting
- Type: tissue-based
Outcome Measure: Ki (nM)
Write the value in nM as a bare number.

Query: Ki; subject: NCCCC[C@H](NC(=O)[C@@H](Cc1cc(Br)c(O)c(Br)c1)NC(=O)N1CCC(N2Cc3ccccc3NC2=O)CC1)C(=O)N1CCN(c2ccncc2)CC1
3.4

====

- Measured Target: Calcitonin gene-related peptide type 1 receptor (Mus musculus, UniProt Q9R1W5+Q9WTJ5)
- Sequence (Q9R1W5 whole entry, one chain of several): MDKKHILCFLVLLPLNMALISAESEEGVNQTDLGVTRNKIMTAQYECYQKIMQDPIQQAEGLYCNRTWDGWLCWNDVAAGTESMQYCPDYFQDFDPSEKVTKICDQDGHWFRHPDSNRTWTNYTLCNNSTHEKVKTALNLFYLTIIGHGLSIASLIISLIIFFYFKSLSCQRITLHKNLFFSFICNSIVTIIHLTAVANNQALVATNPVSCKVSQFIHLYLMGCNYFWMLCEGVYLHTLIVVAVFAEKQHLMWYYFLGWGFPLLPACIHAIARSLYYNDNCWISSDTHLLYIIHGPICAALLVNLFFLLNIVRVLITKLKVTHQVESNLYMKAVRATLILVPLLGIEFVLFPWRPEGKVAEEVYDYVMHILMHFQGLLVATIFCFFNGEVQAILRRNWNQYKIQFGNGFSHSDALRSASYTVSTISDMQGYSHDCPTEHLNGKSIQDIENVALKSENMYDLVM
- Assay Notes: Displacement of [125I]CGRP from mouse CGRP receptor
Outcome Measure: Ki (nM)
Write the value in nM as a bare number.

Entry C[C@@]1(c2cc(F)cc(F)c2)CNC2(CCCC2)C(=O)N1CC(=O)Nc1cnc2c(c1)C[C@@]1(C2)C(=O)Nc2ncccc21 , system Calcitonin gene-related peptide type 1 receptor (Mus musculus, UniProt Q9R1W5+Q9WTJ5): what Ki was measured?
19

====

- Test system: Rhesus monkey
- Assay Notes: Antimigraine activity in iv dosed rhesus monkey assessed as inhibition of capsaicin-induced dermal vasodilation administered 5 mins post capsaicin-challenge measured after 20 mins by laser doppler scanning
- Type: functional, organism-based
- Condition Info: Macaca mulatta
Outcome Measure: EC50

Query: EC50; subject: O=C(CN1C(=O)C2(CCCC2)NC[C@H]1c1cc(F)cc(F)c1)Nc1ccc2c(c1)C[C@@]1(C2)C(=O)Nc2ncccc21
0.8 nM

====

- Assay Notes: Oral bioavailability in rat at 5 mg/kg
- Format: ADME, organism-based
- Condition Info: in vivo
Outcome Measure: bioavailability
Don't forget the unit after the number, please.

Query: bioavailability; subject: C[C@@]1(c2cc(F)cc(F)c2)CNC2(CCCC2)C(=O)N1CC(=O)Nc1cnc2c(c1)C[C@@]1(C2)C(=O)Nc2ncccc21
28%

====

- Assay Notes: Volume of distribution at steady state in rat at 2 mg/kg, iv
- Type: ADME, organism-based
- Parameters: dose 2 mg/kg, route intravenous
- Condition Info: in vivo, read-out: Vdss
Outcome Measure: Vd
Don't forget the unit after the number, please.

Query: Vd; subject: C[C@@]1(c2cc(F)cc(F)c2)CNC2(CCCC2)C(=O)N1CC(=O)Nc1cnc2c(c1)C[C@@]1(C2)C(=O)Nc2ncccc21
0.81 L/kg

====

- Measured Target: Adrenomedullin receptor AM1; CALCRL/RAMP2 (Homo sapiens, UniProt O60895+Q16602)
- Sequence (O60895 whole entry): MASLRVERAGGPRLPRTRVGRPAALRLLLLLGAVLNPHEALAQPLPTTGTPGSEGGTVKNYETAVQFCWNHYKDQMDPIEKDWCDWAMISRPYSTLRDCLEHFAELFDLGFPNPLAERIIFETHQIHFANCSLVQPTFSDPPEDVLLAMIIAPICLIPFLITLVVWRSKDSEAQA
- Sequence (Q16602 whole entry): as the sequence (Q16602 whole entry) above
- Assay Notes: Displacement of [125I]adrenomedullin from human AM1 receptor expressed in HEK293 cells
Outcome Measure: Ki

Query: Ki; subject: C[C@@]1(c2cc(F)cc(F)c2)CNC2(CCCC2)C(=O)N1CC(=O)Nc1cnc2c(c1)C[C@@]1(C2)C(=O)Nc2ncccc21
> 20 µM
